Attribution: patent US20250257071A9

# experimental-system: human TLR7 (Homo sapiens (Human))
# Sequence (Q9NYK1 27-1049): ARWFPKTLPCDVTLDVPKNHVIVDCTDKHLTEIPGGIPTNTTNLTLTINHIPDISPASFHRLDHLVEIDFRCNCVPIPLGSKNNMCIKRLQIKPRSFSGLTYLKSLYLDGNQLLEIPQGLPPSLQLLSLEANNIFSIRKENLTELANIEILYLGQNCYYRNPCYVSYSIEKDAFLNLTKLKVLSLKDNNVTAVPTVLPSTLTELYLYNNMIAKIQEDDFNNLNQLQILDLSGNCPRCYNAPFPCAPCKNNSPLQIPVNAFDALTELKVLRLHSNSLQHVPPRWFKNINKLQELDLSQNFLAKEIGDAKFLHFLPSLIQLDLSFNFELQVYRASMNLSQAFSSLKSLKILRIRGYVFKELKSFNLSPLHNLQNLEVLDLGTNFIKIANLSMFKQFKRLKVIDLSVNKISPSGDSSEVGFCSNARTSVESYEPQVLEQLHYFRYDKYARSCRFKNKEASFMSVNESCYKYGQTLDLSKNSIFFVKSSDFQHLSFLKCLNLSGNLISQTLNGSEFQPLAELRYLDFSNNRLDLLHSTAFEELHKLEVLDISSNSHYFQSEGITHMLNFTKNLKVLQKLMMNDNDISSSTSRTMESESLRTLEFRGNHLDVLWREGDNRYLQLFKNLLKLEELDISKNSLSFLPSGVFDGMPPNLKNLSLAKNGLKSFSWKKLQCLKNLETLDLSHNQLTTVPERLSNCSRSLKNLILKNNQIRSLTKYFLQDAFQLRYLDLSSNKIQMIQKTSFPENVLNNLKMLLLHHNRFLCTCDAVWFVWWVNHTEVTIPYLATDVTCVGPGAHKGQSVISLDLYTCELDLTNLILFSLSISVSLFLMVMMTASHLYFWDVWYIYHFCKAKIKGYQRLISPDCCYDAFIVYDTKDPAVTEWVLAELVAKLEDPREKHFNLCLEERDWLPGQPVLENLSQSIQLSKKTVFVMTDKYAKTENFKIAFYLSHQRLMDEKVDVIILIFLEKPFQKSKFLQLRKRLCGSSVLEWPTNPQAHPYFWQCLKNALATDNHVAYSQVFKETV
# experimental-details: Agonistic activity of compounds on HEK-Blue hTLR7 cells (QUANTI-Blue reporter, OD620)
# Type: cell-based
# test-settings: OD620 at maximum activation effect
# Procedure: • 1. HEK-Blue hTLR7 cells (Invivogen) were cultured in DMEM medium (Hyclone) containing 10% FBS heat-inactivated fetal bovine serum (Corning). […] 10 μL of cell culture supermatant was taken and transferred to a new 96-well transparent plate, 90 μL of QUANTI-Blue (Invivogen) detection reagent was added to each well, and incubated at 37° C. for 3 h, and OD620 was read with a multifunctional microplate reader (BMG LABTECH). • 4. […]
Emax (OD620): recorded values

| smiles-structure | result-unit | Emax (OD620) |
| --- | --- | --- |
| CCCCc1nc2c(N)nc3cc(C)sc3c2n1CC1CCN(C(=O)CCOCCOCCN)CC1 | OD620 | 2.23 |
| CCCCc1nc2c(N)nc3cc(C)sc3c2n1CC1CCN(C)CC1 | OD620 | 1.39 |
| COCCc1nc2c(N)nc3ccsc3c2n1CCCCN | OD620 | 1.74 |
| COCCc1nc2c(N)nc3ccsc3c2n1CC1CCN(C)CC1 | OD620 | 1.41 |
| CCCCc1nc2c(N)nc3cc(C4=CCN(C)CC4)sc3c2[nH]1 | OD620 | 0.56 |
| CCCCc1nc2c(N)nc3ccsc3c2n1CC1CCNCC1 | OD620 | 2.08 |
| CCOCc1nc2c(N)nc3ccsc3c2n1CCCCN | OD620 | 1.46 |
| CCCCc1nc2c(N)nc3cc(C)sc3c2n1CC1CCN(CCOCCOCCOCCOCCOCCOCCOC)CC1 | OD620 | 2.18 |
| COCCc1nc2c(N)nc3ccsc3c2n1CC1CCNCC1 | OD620 | 1.44 |

====

Emax (OD620): recorded values
# experimental-system: human TLR7 (Homo sapiens (Human))
# experimental-details: Agonistic activity of compounds on HEK-Blue hTLR7 cells (QUANTI-Blue reporter, OD620)
# Format: cell-based
# test-settings: OD620 at maximum activation effect

| smiles-structure | result-unit | Emax (OD620) |
| --- | --- | --- |
| CCCCc1nc2c(N)nc3cc(C)sc3c2n1CC1CCN(CCOCCOCCN)CC1 | OD620 | 2.40 |
| CCCCc1nc2c(N)nc3cc(C4CCNCC4)sc3c2n1CC1CCN(CCOC)CC1 | OD620 | 0.84 |
| CCCCc1nc2c(N)nc3cc(C4CCN(C)CC4)sc3c2n1CC1CCOCC1 | OD620 | 1.21 |
| CCCCc1nc2c(N)nc3cc(C)sc3c2n1CC1CCOCC1 | OD620 | 1.78 |
| CCCCc1nc2c(N)nc3cc(C4CCN(C)CC4)sc3c2n1CC1CCN(CCOC)CC1 | OD620 | 0.65 |
